System: MS2 coat protein
ASSAY: apparent KD of MS2 coat protein, switch ON state; designed switch direction (-1 OFF switch, 1 ON switch): -1; higher = weaker reporter binding
COND: FMN input: 0 or 200 uM; Eterna round: R93 (includes R88 designs)
EXPERIMENTAL READOUT: apparent KD of MS2 coat protein (nM)

SEQ STRING | EXPERIMENTAL READOUT | RESULT UNITS | NUMERIC RESULT
AUUAUGUAAGGAUAUGUACGAACAACAAAACAAAUAACGGUACAGAAGGUACAUGAGGAUCACCCAUGUAUAAA [May 71] | apparent KD of MS2 coat protein | nM | 23.6
CUCUUGUGAGGAUAUUGAAGAAAAGAAGAGAAAGAAAAGAACAAGAAGGCACAUGAGGAUCACCCAUGUAAGAA [EteRNA is fun!] | apparent KD of MS2 coat protein | nM | 37.9
ACCUGACAUGAGGAUCACCCAUGUCAGGAUAUGCAUCUUAGGAAAAAAAAACUAAGAUGCAGAAGGGACAUGGG [Design 2: Super Stable 2] | apparent KD of MS2 coat protein | nM | 25.4
AAGAAUGAAGGAUAUACAAGGAAGAAAGAAAAGAAAAGAAAACAUGAGGAUCACCCAUGUAGAAGGUCAUAGAA [EteRNA is fun!] | apparent KD of MS2 coat protein | nM | 22
GAAAAGUGAGGAUAUACAUGAGGAUCACCCAUGUGUAUAAAAAAAUACACAAAAGAAAGUAGAAGGCACUAAAG [Mat - Exclusion 3 - Mayanna mod - D110] | apparent KD of MS2 coat protein | nM | 23.1
AUAGGCCUAGGAUAUACAUGAGGAUCACCCAUGUAAACCGAUAGAUCACGGUAAACGUGUAGAAGGAGGAAUAA [JR_Exc003_Sub207] | apparent KD of MS2 coat protein | nM | 24.4
AAGGUACGAGGAUAUACAUAGAUACAAACACAUGUGGAUGUACAUGAGGAUCACCCAUGUAGAAGGCGUAUAUA [AJ 22] | apparent KD of MS2 coat protein | nM | 58.6
CUCUUGUCAGGAUAUUGAAGAAAAGAAGAGAAAGAAAAGAACAAGAAGGGACAUGAGGAUCACCCAUGUAAGAA [EteRNA is fun!] | apparent KD of MS2 coat protein | nM | 61.8
AAAAAGGCAGGAUAUACAAAAAAAAAAAAAGAGGAGGAGGGACAUGAGGAUCACCCAUGUAGAAGGGCCAAAAA [William Edward Burghardt 'W. E. B.' Du Bois] | apparent KD of MS2 coat protein | nM | 35.4
AUAAAUCGAGGAUAUACAUGAGGAUCACCCAUGUAAAAAAAAAAAAAAUCCUCAGGAAGUAGAAGGCGAAAUAA [JR_Exc003_Sub018] | apparent KD of MS2 coat protein | nM | 11.7
AAGAAGCUAGGAUAUACAUGAGGAUCACCCAUGUAAAAGAAAGAGGGAAAAGAGAAAAGUAGAAGGAGCAAGAA [Cleopatra I] | apparent KD of MS2 coat protein | nM | 27.8
AAAAAGGUAGGAUAUACGAAAAAAAAAAGGUGAAAAAAAAAACAUGAGGAUCACCCAUGUAGAAGGACCAAAAA [Ex 2 sub 1 70% 3] | apparent KD of MS2 coat protein | nM | 36.5
AAAGGUACAGGAUAUGCGUGGAAAAAGUGUAUUCACCAACGACAUGAGGAUCACCCAUGUAGAAGGGUACCAAA [Mod of wbt1 from round 1] | apparent KD of MS2 coat protein | nM | 25.9
AACAGUACAGGAUAUACAUGAGGAUCACCCAUGUCACAAUUAAGCAGCGUAACACAAAGUAGAAGGGUAAUGGA [Ruby 17] | apparent KD of MS2 coat protein | nM | 46.4
AACAGGGCAGGAUAUACAUGAGGAUCACCCAUGUAGGAAACAAGCAGAGUACCAAAAAGUAGAAGGGUCAUGGA [Ruby 31] | apparent KD of MS2 coat protein | nM | 30.2
